Test: 7-day repeat-dose oral toxicokinetics
Type: in vivo, Bama minipig
Conditions: male, Bama, minipig, plasma, po, 0.1 g/kg, 0.1 g/kg BID, Day 1, M; read-out: AUC0-24
Method: Toxicokinetics were evaluated as part of a 7-day oral repeat-dose dose range finding study in Bama minipigs. […] On Days 1 and 7, blood was taken for plasma TK at 0 (pre first dose), 0.5, 1, 2, 4, 6 (pre-second dose), 6.5, 7, 8, 10, and 24 hours post-first dose.

| INPUT SMILES | READING UNIT | AUC(0-t) |
| --- | --- | --- |
| OC[C@@H](O)[C@@H](O)[C@@H](O)CO | µg·h/mL | 160 |

----------
Test: 28-day repeat-dose oral toxicokinetics
Format: in vivo, Bama minipig
Settings: female, Bama, minipig, plasma, po, 0.3 g/kg, 0.3 g/kg/dose BID, Day 1, Female; median (range)
MEASURED ATTRIBUTE: Tmax (h)

| COMPOUND | MEASURED ATTRIBUTE | RECORDED RESULT |
| --- | --- | --- |
| OC[C@@H](O)[C@@H](O)[C@@H](O)CO [ribitol, (2R,3s,4S)-Pentane-1,2,3,4,5-pentol] | Tmax | 4.3 |

----------
Assay: PK comparison QD, BID, TID oral dosing
Format: in vivo
Details: male, CD-1, mouse, plasma, po, 0.3 g/kg, PO 0.3 g/kg/dose TID, last dose
MEASURED ATTRIBUTE: Cmax (ng/mL)

| INPUT SMILES | READING UNIT | RECORDED RESULT |
| --- | --- | --- |
| OC[C@@H](O)[C@@H](O)[C@@H](O)CO | ng/mL | 31400 |

----------
Assay: 28-day repeat-dose oral toxicokinetics
Format: in vivo, CD-1 mouse
Details: female, CD-1, mouse, plasma, po, 0.5 g/kg, 0.5 g/kg/dose BID, Day 1, Female

| COMPOUND | Tmax (h) |
| --- | --- |
| OC[C@@H](O)[C@@H](O)[C@@H](O)CO [ribitol, (2R,3s,4S)-Pentane-1,2,3,4,5-pentol] | 8.5 |

----------
Assay: Single oral dose PK
Assay type: in vivo
Settings: Bama, minipig, plasma; single PO 0.3 g/kg, male
MEASURED ATTRIBUTE: AUC(0-inf) (µg·h/mL)

| MOLECULE | MEASURED ATTRIBUTE | RECORDED RESULT |
| --- | --- | --- |
| OC[C@@H](O)[C@@H](O)[C@@H](O)CO [ribitol, (2R,3s,4S)-Pentane-1,2,3,4,5-pentol] | AUC(0-inf) | 210 |

----------
Assay: Phase 1 SAD/MAD study in healthy subjects
Format: in vivo, human
Settings: human, in vivo, oral, 3 g, steady state, 6 days, 3 g once daily

| INPUT SMILES | Cmax / ng/mL |
| --- | --- |
| OC[C@@H](O)[C@@H](O)[C@@H](O)CO | 35600 |

----------
Experiment: 7-day repeat-dose oral toxicokinetics
Assay type: in vivo, CD-1 mouse
Settings: female, CD-1, mouse, plasma, po, 0.5 g/kg, 0.5 g/kg/dose BID, Day 1, F; read-out: AUC0-24
MEASURED ATTRIBUTE: AUC(0-t) (µg·h/mL)

| COMPOUND | MEASURED ATTRIBUTE | RECORDED RESULT |
| --- | --- | --- |
| OC[C@@H](O)[C@@H](O)[C@@H](O)CO [ribitol, (2R,3s,4S)-Pentane-1,2,3,4,5-pentol] | AUC(0-t) | 298 |

----------
Experiment: Single intravenous dose PK
Type: in vivo, Bama minipig
Details: Bama, minipig, plasma; IV 30 mg/kg, male

| INPUT SMILES | AUC(0-inf) / ng·h/mL |
| --- | --- |
| OC[C@@H](O)[C@@H](O)[C@@H](O)CO | 35800 |

----------
Assay: 28-day repeat-dose oral toxicokinetics
Assay type: in vivo, Bama minipig
Conditions: female, Bama, minipig, plasma, po, 1 g/kg, 1.0 g/kg/dose BID, Day 28, Female; median (range)

| INPUT SMILES | Tmax (h) |
| --- | --- |
| OC[C@@H](O)[C@@H](O)[C@@H](O)CO | 7 |

----------
Test: Phase 1 SAD/MAD study in healthy subjects
Type: in vivo, human
Conditions: human, in vivo, oral, 6 g q 12 h, steady state, 6 days, 6 g q 12 h (total 12 g/day); read-out: AUC(0-24)
MEASURED ATTRIBUTE: AUC(0-t) (µg·h/mL)

| COMPOUND | MEASURED ATTRIBUTE | RECORDED RESULT |
| --- | --- | --- |
| OC[C@@H](O)[C@@H](O)[C@@H](O)CO [ribitol, (2R,3s,4S)-Pentane-1,2,3,4,5-pentol] | AUC(0-t) | 500 |

----------
Assay: Single oral dose PK
Assay type: in vivo, CD-1 mouse
Conditions: both sexes, CD-1, plasma, po; mouse, range over doses and sexes; read-out: oral bioavailability

| INPUT SMILES | bioavailability |
| --- | --- |
| OC[C@@H](O)[C@@H](O)[C@@H](O)CO | 22.1 to 30.9% |

----------
Assay: Single oral dose PK
Assay type: in vivo
Conditions: Bama, minipig, plasma; single PO 1.0 g/kg, female; read-out: % F
MEASURED ATTRIBUTE: bioavailability (%)

| INPUT SMILES | RECORDED RESULT |
| --- | --- |
| OC[C@@H](O)[C@@H](O)[C@@H](O)CO | 70.2 |

----------
Test: 28-day repeat-dose oral toxicokinetics
Type: in vivo, CD-1 mouse
Conditions: female, CD-1, mouse, plasma, po, 1 g/kg, 1.0 g/kg/dose BID, Day 28, Female
MEASURED ATTRIBUTE: Tmax

| MOLECULE | RECORDED RESULT |
| --- | --- |
| OC[C@@H](O)[C@@H](O)[C@@H](O)CO [ribitol, (2R,3s,4S)-Pentane-1,2,3,4,5-pentol] | 30 min |

----------
Assay: Metabolic stability in liver microsomes, cytosol, hepatocytes
Type: in vitro ADME
Details: CD-1, mouse, primary hepatocytes, Hepatocytes

| INPUT SMILES | CLint scaled at 10 μM |
| --- | --- |
| OC[C@@H](O)[C@@H](O)[C@@H](O)CO | < 22.6 mL/min/kg |

----------
Assay: 7-day repeat-dose oral toxicokinetics
Assay type: in vivo, Bama minipig
Conditions: female, Bama, minipig, plasma, po, 0.1 g/kg, 0.1 g/kg BID, Day 1, F; read-out: AUC0-24
MEASURED ATTRIBUTE: AUC(0-t) (µg·h/mL)

| MOLECULE | RECORDED RESULT |
| --- | --- |
| OC[C@@H](O)[C@@H](O)[C@@H](O)CO [ribitol, (2R,3s,4S)-Pentane-1,2,3,4,5-pentol] | 284 |

----------
Assay: 28-day repeat-dose oral toxicokinetics
Type: in vivo, Bama minipig
Conditions: male, Bama, minipig, plasma, po, 0.3 g/kg, 0.3 g/kg/dose BID, Day 1, Male; mean ± SD; read-out: AUC0-24

| INPUT SMILES | AUC(0-t) |
| --- | --- |
| OC[C@@H](O)[C@@H](O)[C@@H](O)CO | 539 µg·h/mL |

----------
Assay: PK comparison QD, BID, TID oral dosing
Type: in vivo
Details: female, CD-1, mouse, plasma, po, 0.3 g/kg, PO 0.3 g/kg QD

| INPUT SMILES | Cmax |
| --- | --- |
| OC[C@@H](O)[C@@H](O)[C@@H](O)CO | 33300 ng/mL |

----------
Test: in vivo
Conditions: both, Bama, minipig, po

| INPUT SMILES | MTD at 14 days |
| --- | --- |
| OC[C@@H](O)[C@@H](O)[C@@H](O)CO | ≥ 4000 mg/kg/day |

----------
Assay: 28-day repeat-dose oral toxicokinetics
Type: in vivo, CD-1 mouse
Conditions: male, CD-1, mouse, plasma, po, 1 g/kg, 1.0 g/kg/dose BID, Day 1, Male; read-out: AUC0-24
MEASURED ATTRIBUTE: AUC(0-t) (µg·h/mL)

| INPUT SMILES | MEASURED ATTRIBUTE | RECORDED RESULT |
| --- | --- | --- |
| OC[C@@H](O)[C@@H](O)[C@@H](O)CO | AUC(0-t) | 559 |

----------
Assay: Single intravenous dose PK
Format: in vivo, Bama minipig
Details: Bama, minipig, plasma; IV 10 mg/kg, female; read-out: T1/2 (converted)
MEASURED ATTRIBUTE: half-life (min)

| COMPOUND | READING UNIT | RECORDED RESULT |
| --- | --- | --- |
| OC[C@@H](O)[C@@H](O)[C@@H](O)CO [ribitol, (2R,3s,4S)-Pentane-1,2,3,4,5-pentol] | min | 33.4 |

Origin of measurements: patent US20230364118A1
